# Tested on: A549
# TEST METHOD NOTES: Cytotoxicity against human A549 cells assessed as age growth inhibition at 100 uM after 48 hrs by sulforhodamine B assay
# Format: functional
# CONDITION DETAILS: A549, 48 h, read-out: GI
Kindly return MET if reported inhibition of growth at 100 µM is no lower than 40%; return NOT MET if it is lower.

Would you please look over these solved cases?
• COc1ccc([C@H]2OC(=O)[C@@H]3C=C4C(C)(C)CCC[C@]4(C)[C@H]23)cc1 = MET
• CC1(C)CCC[C@@]2(C)C1=C[C@H]1C(=O)O[C@H](c3ccco3)[C@H]12 = NOT MET
• CC1(C)CCC[C@@]2(C)C1=C[C@H]1C(=O)O[C@H](c3ccccc3)[C@H]12 = MET
• CC1(C)CCC[C@@]2(C)C1=C[C@H]1C(=O)O[C@H](c3ccc(F)cc3)[C@H]12 = MET
• CC1(C)CCC[C@@]2(C)C1=C[C@H]1C(=O)O[C@H](c3ccc(C#N)cc3)[C@H]12 = NOT MET

Qu. Exam item: decide whether the reported inhibition of growth at 100 µM for Cc1ccc([C@H]2OC(=O)[C@@H]3C=C4C(C)(C)CCC[C@]4(C)[C@H]23)cc1 is at least 40%.
Ans. MET

Qu. Exam item: decide whether the reported inhibition of growth at 100 µM for CC1(C)CCC[C@@]2(C)C1=C[C@H]1C(=O)O[C@H](c3ccc(Br)cc3)[C@H]12 is at least 40%.
Ans. NOT MET

Qu. Exam item: decide whether the reported inhibition of growth at 100 µM for CC1(C)CCC[C@@]2(C)C1=C[C@H]1C(=O)O[C@H](c3ccc(Cl)cc3)[C@H]12 is at least 40%.
Ans. NOT MET

====

Reported inhibition of growth at 50 µM values for the following molecules.
# Test system: SK-OV-3
# TEST METHOD NOTES: Cytotoxicity against human SKOV3 cells assessed as age growth inhibition at 50 uM after 48 hrs by sulforhodamine B assay
# Assay type: functional
# CONDITION DETAILS: SK-OV-3, 48 h, read-out: GI

Worked examples follow.
* CC1(C)CCC[C@@]2(C)C1=C[C@H]1C(=O)O[C@H](c3ccc(Cl)cc3)[C@H]12 | 14%
* CC1(C)CCC[C@@]2(C)C1=C[C@H]1C(=O)O[C@H](c3ccc(F)cc3)[C@H]12 | 13%

Lab note: measured inhibition of growth at 50 µM of CC1(C)CCC[C@@]2(C)C1=C[C@H]1C(=O)O[C@H](c3ccc(C#N)cc3)[C@H]12 was 25%

Lab note: measured inhibition of growth at 50 µM of COc1ccc([C@H]2OC(=O)[C@@H]3C=C4C(C)(C)CCC[C@]4(C)[C@H]23)cc1 was 0%

Lab note: measured inhibition of growth at 50 µM of CC1(C)CCC[C@@]2(C)C1=C[C@H]1C(=O)O[C@H](c3ccco3)[C@H]12 was 9%

====

# Tested on: IGROV-1
# TEST METHOD NOTES: Cytotoxicity against human IGROV1 cells assessed as age growth inhibition at 50 uM after 48 hrs by sulforhodamine B assay
# Type: functional
# CONDITION DETAILS: IGROV-1, 48 h, read-out: GI
MEASURED ENDPOINT: inhibition of growth at 50 µM (%)
Write the number in % without appending the unit.

- Cc1ccc([C@H]2OC(=O)[C@@H]3C=C4C(C)(C)CCC[C@]4(C)[C@H]23)cc1: 29
- CC1(C)CCC[C@@]2(C)C1=C[C@H]1C(=O)O[C@H](c3ccccc3)[C@H]12: 22
- CC1(C)CCC[C@@]2(C)C1=C[C@H]1C(=O)O[C@H](c3ccc(Br)cc3)[C@H]12: 26
- CC1(C)CCC[C@@]2(C)C1=C[C@H]1C(=O)O[C@H](c3ccc(Cl)cc3)[C@H]12: 15
- COc1ccc([C@H]2OC(=O)[C@@H]3C=C4C(C)(C)CCC[C@]4(C)[C@H]23)cc1: 30
- CC1(C)CCC[C@@]2(C)C1=C[C@H]1C(=O)O[C@H](c3ccc(F)cc3)[C@H]12: 20
- CC1(C)CCC[C@@]2(C)C1=C[C@H]1C(=O)O[C@H](c3ccc(C#N)cc3)[C@H]12: 25

Field: next molecule
CC1(C)CCC[C@@]2(C)C1=C[C@H]1C(=O)O[C@H](c3ccco3)[C@H]12 on IGROV-1 gives inhibition of growth at 50 µM = 24

====

# Tested on: DU-145
# TEST METHOD NOTES: Cytotoxicity against human DU145 cells assessed as age growth inhibition at 50 uM after 48 hrs by sulforhodamine B assay
# Format: functional
# CONDITION DETAILS: DU-145, 48 h, read-out: GI
MEASURED ENDPOINT: inhibition of growth at 50 µM (%)
Write the number in % without appending the unit.

Worked examples follow.
* CC1(C)CCC[C@@]2(C)C1=C[C@H]1C(=O)O[C@H](c3ccc(C#N)cc3)[C@H]12 | 22
* CC1(C)CCC[C@@]2(C)C1=C[C@H]1C(=O)O[C@H](c3ccc(Cl)cc3)[C@H]12 | 30
* CC1(C)CCC[C@@]2(C)C1=C[C@H]1C(=O)O[C@H](c3ccccc3)[C@H]12 | 32

Field: next compound
Lab note: measured inhibition of growth at 50 µM of CC1(C)CCC[C@@]2(C)C1=C[C@H]1C(=O)O[C@H](c3ccc(F)cc3)[C@H]12 was 0

====

Reported inhibition of growth at 50 µM values for the following compounds.
# System: DU-145
# TEST METHOD NOTES: Cytotoxicity against human DU145 cells assessed as age growth inhibition at 50 uM after 48 hrs by sulforhodamine B assay
# Assay type: functional
# CONDITION DETAILS: DU-145, 48 h, read-out: GI
Write the number in % without appending the unit.

Worked examples follow.
* Cc1ccc([C@H]2OC(=O)[C@@H]3C=C4C(C)(C)CCC[C@]4(C)[C@H]23)cc1 | 10
* CC1(C)CCC[C@@]2(C)C1=C[C@H]1C(=O)O[C@H](c3ccc(Br)cc3)[C@H]12 | 27
* CC1(C)CCC[C@@]2(C)C1=C[C@H]1C(=O)O[C@H](c3ccco3)[C@H]12 | 37

Field: next compound
Lab note: measured inhibition of growth at 50 µM of COc1ccc([C@H]2OC(=O)[C@@H]3C=C4C(C)(C)CCC[C@]4(C)[C@H]23)cc1 was 12

====

# System: COLO 205
# TEST METHOD NOTES: Cytotoxicity against human COLO205 cells assessed as age growth inhibition at 50 uM after 48 hrs by sulforhodamine B assay
# Assay type: functional
# CONDITION DETAILS: COLO 205, 48 h, read-out: GI
Kindly return true if reported inhibition of growth at 50 µM is no lower than 20%; return false if it is lower.

Would you please look over these solved cases?
* CC1(C)CCC[C@@]2(C)C1=C[C@H]1C(=O)O[C@H](c3ccc(C#N)cc3)[C@H]12 | true
* CC1(C)CCC[C@@]2(C)C1=C[C@H]1C(=O)O[C@H](c3ccc(F)cc3)[C@H]12 | true
* CC1(C)CCC[C@@]2(C)C1=C[C@H]1C(=O)O[C@H](c3ccc(Br)cc3)[C@H]12 | false
* CC1(C)CCC[C@@]2(C)C1=C[C@H]1C(=O)O[C@H](c3ccccc3)[C@H]12 | true
* Cc1ccc([C@H]2OC(=O)[C@@H]3C=C4C(C)(C)CCC[C@]4(C)[C@H]23)cc1 | true

Qu. Exam item: decide whether the reported inhibition of growth at 50 µM for COc1ccc([C@H]2OC(=O)[C@@H]3C=C4C(C)(C)CCC[C@]4(C)[C@H]23)cc1 is at least 20%.
Ans. false

Qu. Exam item: decide whether the reported inhibition of growth at 50 µM for CC1(C)CCC[C@@]2(C)C1=C[C@H]1C(=O)O[C@H](c3ccc(Cl)cc3)[C@H]12 is at least 20%.
Ans. true

====

# System: COLO 205
# TEST METHOD NOTES: Cytotoxicity against human COLO205 cells assessed as age growth inhibition at 100 uM after 48 hrs by sulforhodamine B assay
# Assay type: functional
# CONDITION DETAILS: COLO 205, 48 h, read-out: GI
Reported inhibition of growth at 100 µM values for the following compounds.
Write the number in % without appending the unit.

Worked examples follow.
• CC1(C)CCC[C@@]2(C)C1=C[C@H]1C(=O)O[C@H](c3ccc(C#N)cc3)[C@H]12 = 24
• COc1ccc([C@H]2OC(=O)[C@@H]3C=C4C(C)(C)CCC[C@]4(C)[C@H]23)cc1 = 52
• CC1(C)CCC[C@@]2(C)C1=C[C@H]1C(=O)O[C@H](c3ccc(F)cc3)[C@H]12 = 32
• Cc1ccc([C@H]2OC(=O)[C@@H]3C=C4C(C)(C)CCC[C@]4(C)[C@H]23)cc1 = 34
• CC1(C)CCC[C@@]2(C)C1=C[C@H]1C(=O)O[C@H](c3ccccc3)[C@H]12 = 79

Lab note: measured inhibition of growth at 100 µM of CC1(C)CCC[C@@]2(C)C1=C[C@H]1C(=O)O[C@H](c3ccco3)[C@H]12 was 64

Lab note: measured inhibition of growth at 100 µM of CC1(C)CCC[C@@]2(C)C1=C[C@H]1C(=O)O[C@H](c3ccc(Cl)cc3)[C@H]12 was 25

Lab note: measured inhibition of growth at 100 µM of CC1(C)CCC[C@@]2(C)C1=C[C@H]1C(=O)O[C@H](c3ccc(Br)cc3)[C@H]12 was 32
